The origin of these recorded values is ChEMBL document CHEMBL4739717.

experimental_target: Dual specificity tyrosine-phosphorylation-regulated kinase 1A (Homo sapiens, UniProt Q13627)
method_notes: Inhibition of recombinant DYRK1A (unknown origin) using Ser/Thr 18 peptide as substrate incubated for 1 hr in presence of ATP by FRET assay
experimental_endpoint: pEC50
pEC50 field: float, defined as -log10 of concentration (mol/L).

[
  {
    "mol_smiles": "O=C(Nc1ccc(OC(F)F)cc1)c1n[nH]c2ccc(-c3cnc4n3CCNC4)cc12",
    "pEC50": 7.80
  }
]

Incoming: Request the reported pEC50 associated with "CN1CCN(c2nccc3[nH]c(-c4n[nH]c5cnc(-c6cncc(N)c6)cc45)cc23)CC1"
Outgoing: 7.80

Incoming: Request the reported pEC50 associated with "Cn1cc(-c2cnc3[nH]nc(-c4cc5cccnc5[nH]4)c3c2)cn1"
Outgoing: 8.10

Incoming: Request the reported pEC50 associated with "O=C(Nc1cccnc1)c1n[nH]c2ncc(-c3cccnc3)cc12"
Outgoing: 8.22

Incoming: Request the reported pEC50 associated with "c1csc(-c2cncc3[nH]c(-c4n[nH]c5ncc(-c6cncc(CNCC7CCCC7)c6)cc45)nc23)c1"
Outgoing: 7.80

====

experimental_target: Dual specificity tyrosine-phosphorylation-regulated kinase 1A (Homo sapiens)
method_notes: Inhibition of recombinant DYRK1A (unknown origin) using Ser/Thr 18 peptide as substrate incubated for 1 hr in presence of ATP by FRET assay
pEC50: −log10 of the molar value.
So basically: pEC50 at 8 or higher? That is Condition met. Lower than 8? That is Condition not met.

Here are 5 compounds together with their reported answers.
[
  {
    "mol_smiles": "Cn1cc(-c2cc3c(C(=O)Nc4ccc5c(c4)CNC5)n[nH]c3cc2F)cn1",
    "class_label": "Condition met"
  },
  {
    "mol_smiles": "O=C(Nc1cccnc1)c1n[nH]cc1C#Cc1cncc(OC2CCNCC2)c1",
    "class_label": "Condition not met"
  },
  {
    "mol_smiles": "CC(C)Nc1cncc(-c2cnc3[nH]nc(-c4nc5c(-c6cc(F)cc(NCCN(C)C)c6)nccc5[nH]4)c3c2)c1",
    "class_label": "Condition met"
  },
  {
    "mol_smiles": "CC(C)Nc1cncc(-c2ccc3[nH]nc(-c4nc5c(-c6ccoc6)nccc5[nH]4)c3n2)c1",
    "class_label": "Condition not met"
  },
  {
    "mol_smiles": "FC1(F)CCN(Cc2cncc(-c3ccc4[nH]nc(-c5cc6c(N7CCCCC7)ccnc6[nH]5)c4n3)c2)C1",
    "class_label": "Condition not met"
  }
]

# next compound below
Incoming: Exam item: decide whether the reported pEC50 for "c1cncc(-c2cc3c(-c4nc5c(-c6cccnc6)cccc5[nH]4)n[nH]c3cn2)c1" is at least 8.
Outgoing: Condition not met

====

Reported EC50 values follow for various compounds
method_notes: Effect on Wnt signaling pathway in human SW480 cells harbouring TCF/LEF luciferase reporter gene and SP5-Luc reporter gene incubated for 36 to 48 hrs by luminescence assay
Type: cell-based

// solved cases for EC50 follow
[
  {
    "mol_smiles": "O=C(Cc1ccccc1)Nc1cncc(-c2ccc3[nH]nc(-c4nc5c(-c6ccncc6)ccnc5[nH]4)c3n2)c1",
    "experimental_result": "> 10 µM"
  },
  {
    "mol_smiles": "Cc1cn(-c2ccnc3[nH]c(-c4n[nH]c5ccc(-c6cncc(NC(=O)C(C)(C)C)c6)nc45)nc23)cn1",
    "experimental_result": "> 10 µM"
  },
  {
    "mol_smiles": "c1cncc(-c2ccc3[nH]nc(-c4nc5cnccc5[nH]4)c3n2)c1",
    "experimental_result": "> 10 µM"
  },
  {
    "mol_smiles": "CC(C)C(=O)Nc1cncc(-c2cnc3[nH]nc(-c4cc5c(N6CCN(C)CC6)nccc5[nH]4)c3c2)c1",
    "experimental_result": "> 10 µM"
  }
]

Incoming: Request the reported EC50 associated with "Cc1ncc(-c2ccc3cnc(NC(=O)C4(F)CC4)cc3c2)n1C"
Outgoing: 2.21 µM

Incoming: Request the reported EC50 associated with "FC1(F)CCN(Cc2cncc(-c3cc4c(-c5nc6c(N7CCCCC7)cncc6[nH]5)n[nH]c4cn3)c2)C1"
Outgoing: 0.116 µM

Incoming: Request the reported EC50 associated with "CN(C)Cc1cncc(-c2ccc3[nH]nc(-c4nc5c(-c6cccc(F)c6)cncc5[nH]4)c3n2)c1"
Outgoing: 1.05 µM

====

Reported EC50 values follow for various compounds
experimental_target: UniProtKB P49761
Sequence (P49761 whole entry): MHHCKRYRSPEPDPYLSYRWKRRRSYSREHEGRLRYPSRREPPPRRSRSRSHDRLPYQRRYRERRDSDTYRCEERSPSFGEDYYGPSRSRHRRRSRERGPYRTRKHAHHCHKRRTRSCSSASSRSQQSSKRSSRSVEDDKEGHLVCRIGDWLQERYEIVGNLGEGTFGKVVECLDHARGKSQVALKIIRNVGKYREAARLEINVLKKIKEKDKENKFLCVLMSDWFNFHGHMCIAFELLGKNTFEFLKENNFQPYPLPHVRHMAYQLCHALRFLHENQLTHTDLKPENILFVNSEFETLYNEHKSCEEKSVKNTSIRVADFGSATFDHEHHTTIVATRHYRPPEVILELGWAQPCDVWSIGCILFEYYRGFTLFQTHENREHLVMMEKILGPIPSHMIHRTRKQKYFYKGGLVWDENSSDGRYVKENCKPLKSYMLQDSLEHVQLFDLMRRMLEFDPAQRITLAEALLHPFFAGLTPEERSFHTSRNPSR
method_notes: Inhibition of recombinant CLK3 (unknown origin) using Ser/Thr 18 peptide as substrate incubated for 1 hr in presence of ATP by FRET assay

// solved cases for EC50 follow
[
  {
    "mol_smiles": "O=C(Nc1c[nH]nc1C(=O)Nc1cncc(-c2cccc(F)c2)c1)c1cncc(F)c1",
    "experimental_target": "UniProtKB P49761",
    "EC50": "> 10 µM"
  },
  {
    "mol_smiles": "O=C(Nc1cncc(-c2ccc3[nH]nc(-c4nc5c(-c6cccc(F)c6)cccc5[nH]4)c3n2)c1)C1CC1",
    "experimental_target": "UniProtKB P49761",
    "EC50": "> 10 µM"
  }
]

Okay, now this compound:
Incoming: Request the reported EC50 associated with "c1cc(-c2ccnc3[nH]c(-c4n[nH]c5ccc(-c6cncc(CNCC7CCCC7)c6)nc45)cc23)ccn1"
Outgoing: > 10 µM

====

Reported EC50 values follow for various molecules
experimental_target: Dual specificity tyrosine-phosphorylation-regulated kinase 1A (Homo sapiens, UniProt Q13627)
method_notes: Inhibition of recombinant DYRK1A (unknown origin) using Ser/Thr 18 peptide as substrate incubated for 1 hr in presence of ATP by FRET assay
The reply should read as a number followed by its unit.

// solved cases for EC50 follow
[
  {
    "mol_smiles": "CN1CCN(c2nccc3[nH]c(-c4n[nH]c5ccc(-c6cncc(CN7CCCCC7)c6)nc45)cc23)CC1",
    "EC50": "15 nM"
  },
  {
    "mol_smiles": "Fc1cccc(-c2cncc3[nH]c(-c4n[nH]c5ccc(-c6cn[nH]c6)nc45)nc23)c1",
    "EC50": "16 nM"
  },
  {
    "mol_smiles": "CCCC(=O)Nc1cncc(-c2cc3c(-c4nc5c(-c6ccsc6)cncc5[nH]4)n[nH]c3cn2)c1",
    "EC50": "8 nM"
  },
  {
    "mol_smiles": "CC(C)Nc1cncc(-c2ccc3[nH]nc(-c4nc5c(-c6cccnc6)cncc5[nH]4)c3n2)c1",
    "EC50": "15 nM"
  },
  {
    "mol_smiles": "CN1CCN(c2cncc3[nH]c(-c4n[nH]c5ccc(-c6cncc(N)c6)nc45)nc23)CC1",
    "EC50": "9 nM"
  }
]

Okay, now this molecule:
Incoming: Request the reported EC50 associated with "CC(C)CC(=O)Nc1cncc(-c2ccc3[nH]nc(-c4cc5c(-c6cc(F)cc(CNS(C)(=O)=O)c6)nccc5[nH]4)c3n2)c1"
Outgoing: 14 nM

====

Reported EC50 values follow for various molecules
method_notes: Effect on Wnt signaling pathway in human SW480 cells harbouring TCF/LEF luciferase reporter gene and SP5-Luc reporter gene incubated for 36 to 48 hrs by luminescence assay
Type: cell-based

// solved cases for EC50 follow
[
  {
    "mol_smiles": "CCNCc1cncc(-c2cc3c(-c4cc5c(-c6ccccc6F)ccnc5[nH]4)n[nH]c3cn2)c1",
    "EC50": "> 10 µM"
  },
  {
    "mol_smiles": "CC(C)CC(=O)Nc1cncc(-c2cc3c(-c4nc5c(-c6cc(F)cc(OCCN7CCCC7)c6)cncc5[nH]4)n[nH]c3cn2)c1",
    "EC50": "> 10 µM"
  },
  {
    "mol_smiles": "CCCC(=O)Nc1cncc(-c2cnc3[nH]nc(-c4cc5c(-c6ccncc6)ccnc5[nH]4)c3c2)c1",
    "EC50": "0.999 µM"
  },
  {
    "mol_smiles": "CC(C)(C)CC(=O)Nc1cncc(-c2cnc3[nH]nc(-c4cc5c(-c6cccnc6)cncc5[nH]4)c3c2)c1",
    "EC50": "> 10 µM"
  }
]

Okay, now this molecule:
Incoming: Request the reported EC50 associated with "CC(C)C(=O)Nc1cncc(-c2ccc3[nH]nc(-c4nc5c(-c6ccccc6F)cncc5[nH]4)c3n2)c1"
Outgoing: > 10 µM
